Test system: A549
test-details: NCI tumour cell line growth inhibition, 48 h
Calls of active or inactive are those of the source. Cut-off read from the data, not from the text of the source: active = GI50 up to about 1.1 µM and inactive = higher.
Below is a list of entries, each paired with its recorded GI50 value.

The cases that follow already have their GI50 on record.
molecule: CN(C)c1ncc(-c2c[nH]c3ccccc23)nc1-c1c[nH]c2ccccc12
GI50: 3.33 µM (inactive)
//
molecule: O=C1c2ccccc2CC12CCC1(CC2)OCCO1
GI50: > 100 µM (inactive)
//
molecule: Cc1nc(N)sc1/N=N/c1ccccc1Br
GI50: > 53.7 µM (inactive)
//
molecule: O=S(=O)(c1ccc(I)cc1)N(c1ccccc1)S(=O)(=O)C(F)(F)C(F)(F)C(F)(F)C(F)(F)F
GI50: 31.5 µM (inactive)
//
molecule: CCOc1ccc(NC(=O)CC2C(=O)Nc3ccccc3[S+]2[O-])cc1 (configuration not stated)
GI50: > 94 µM (inactive)
//
molecule: S=C(N1CCN(c2ccc(Cl)c(Cl)c2)CC1)N1CCN(c2ccc(Cl)c(Cl)c2)CC1
GI50: 16.3 µM (inactive)
//
molecule: COc1ccccc1/C=C1\S/C(=N/Nc2nc(C)c(C(C)=O)s2)NC1=O
GI50: 44.8 µM (inactive)
//
molecule: COC(=O)/C(C#N)=C1\CCC(C(=O)OC)N1C (configuration not stated)
GI50: > 100 µM (inactive)

Shift focus to the following entry.
Consider the molecule "O=c1c(Cc2ccc(Cl)cc2)nnc2sc(-c3ccc(-c4ccc(F)c(Cl)c4)o3)nn12" . State its measured GI50. 51.3 µM (inactive)

====

Where a SMILES comes first, the peptide text is derived from it. [ ]: non-standard residue; d: D form. Hiv = CC(C)[C@H](O)C(=O)O
GI50 tested on HCT-15: recorded values

compound: COc1c(C(=O)c2ccc([N+](=O)[O-])cc2)cc(C(C)(C)C)cc1C(C)(C)C
GI50: 32 µM

Read off the recorded GI50 for COC(=O)[C@]1(c2cc3ccccc3[nH]2)CC2CNC1C1OC(C)(C)OC21 (stereo not given in full) > 100 µM

Please report GI50 for the following compound: CC(C)[C@@H]1OC(=O)[C@@H](C)NC(=O)[C@@H]2CCCN2C1=O (cyclo([Hiv]-Pro-[dA])) > 100 µM

State, in one line, measured GI50 of O=C1NCC2(CCN(CC3COc4ccccc4O3)CC2)N1c1ccccc1 (stereo not given) > 100 µM

Look up and report measured GI50 for this entry: "O=C1O/C(=C\c2ccc(O)cc2)C(c2ccc(O)c(Cl)c2)=C1Cl" 50 µM

For the compound CC(C)CC1N=C(OCc2ccccc2)OC1=O (stereo not given) , give its measured GI50 value. > 100 µM

Item "O=S(=O)(OI(OI(OS(=O)(=O)C(F)(F)F)c1ccccc1)c1ccccc1)C(F)(F)F" : provide GI50 > 100 µM

Quick one: give measured GI50 for COC(=O)N1CC2(CO)C3CC=C(C(=O)Nc4ccccc4Br)C2C1C3Br (stereo not given) > 50 µM

Name the recorded GI50 of the item "CCc1n[nH]c(=O)n1CC" in your answer. > 100 µM

Please list GI50 recorded for the compound "C[n+]1cccc2ccc(OC(=O)c3ccccc3)cc21" > 100 µM

Using known records, supply GI50 for "CCOP(=O)(Cc1ccc(CP(=O)(OCC)OCC)n1C)OCC" > 100 µM

State its GI50 for this compound: "C[Si](C)(c1ccccc1)C1CC(=O)CC(=O)C1" > 100 µM

====

Test system: DMS-273
test-details: NCI tumour cell line growth inhibition, 48 h
Activity calls are given as the source filed them. Cut-off read from the data, not from the text of the source: active = GI50 up to about 1.1 µM and inactive = higher.
Outcome (select one): true (1) for active, false (0) for inactive

Look over these answered cases.
molecule: CC[C@@]1(O)C(=O)OCc2c1c(Cl)c1n(c2=O)Cc2cc3ccccc3nc2-1
experimental-target: DMS-273
assigned-label: true (1)

molecule: O=S(=O)(OI(OI(OS(=O)(=O)C(F)(F)F)c1ccccc1)c1ccccc1)C(F)(F)F
experimental-target: DMS-273
assigned-label: false (0)

molecule: CCCCC1(C)C=C/C(=C2/C(=O)O/C(=C\C(=O)O)C2=O)O1 (stereo not given)
experimental-target: DMS-273
assigned-label: false (0)

molecule: O=[N+]([O-])c1cccc(C2ON2C2CCCCC2)c1 (stereo not given)
experimental-target: DMS-273
assigned-label: false (0)

molecule: CC(C)(C)[Si](C)(C)O/N=C\c1ccc(O[Si](C)(C)C(C)(C)C)cc1
experimental-target: DMS-273
assigned-label: false (0)

molecule: C[n+]1c2ccccc2c(CNCC(=O)O)c2ccccc21
experimental-target: DMS-273
assigned-label: true (1)

molecule: O=C1C=CC(=O)c2cc(Sc3ccccc3)c(=O)c(Sc3ccccc3)cc21
experimental-target: DMS-273
assigned-label: false (0)

molecule: COc1c(OC2OC(CO)C(O)C(O)C2O)cc2c(c1OC)-c1ccc(OC)c(=O)cc1[C@@H](NC(C)=O)CC2 (stereo not given in full)
experimental-target: DMS-273
assigned-label: false (0)

molecule: CCOc1ccc(NC(=O)CC2C(=O)Nc3ccccc3[S+]2[O-])cc1 (stereo not given)
experimental-target: DMS-273
assigned-label: false (0)

Now take the following molecule into account.
Which outcome was entered for the molecule "N#CCC(=O)N1CCCCCCC1" in this test? false (0)

====

Tested on: HCC 2998
test-details: NCI tumour cell line growth inhibition, 48 h
Calls of active or inactive are those of the source. No stated cut-off is given here; in the data, active = GI50 up to about 1.1 µM and inactive = higher.
parameter-measured: GI50

compound: O=c1cc(CN2CCCCC2)nc2ccc3c(O)cc(CN4CCCCC4)nc3n12
GI50: > 100 µM (inactive)

Lab note: next compound to report on.
Supply recorded GI50 for CCOC(=O)C(NC(=O)CC(C)C)(NC(C)C)C(F)(F)F (stereo not given) here. > 100 µM (inactive)

====

// values below are reported GI50
Tested on: SK-MEL-5
test-details: NCI tumour cell line growth inhibition, 48 h
Calls of active or inactive are those of the source. Cut-off read from the data, not from the text of the source: active = GI50 up to about 1.1 µM and inactive = higher. Peptide text beside a SMILES is read from it. * marks the point of attachment. Boc = CC(C)(C)OC(=O)*

compound: CC(=O)c1c[nH]cc1CO
GI50: > 10 µM (inactive)
--
compound: N#CC1CC2(C(=O)C1=O)c1ccccc1-c1ccccc12 (stereo not drawn)
GI50: > 100 µM (inactive)
--
compound: C/C=C\C(CC(=O)NCCc1c[nH]c2ccccc12)CC(=O)OC (stereo not drawn)
GI50: > 100 µM (inactive)
--
compound: O=[N+]([O-])c1cccc(S(=O)(=O)N/N=C/c2cc(I)cc([N+](=O)[O-])c2O)c1
GI50: 22.7 µM (inactive)
--
compound: CC(Nc1ncc2c(n1)-c1ccccc1OC2)C(=O)O (stereo not drawn)
GI50: > 100 µM (inactive)
--
compound: COC(=O)C(Cc1ccccc1)NC(=O)C(CS)NC(=O)OC(C)(C)C (stereo not drawn) (Boc-Cys-Phe-OMe; configuration not given here)
GI50: > 100 µM (inactive)
--
compound: NS(=O)(=O)c1nnc(NC(=O)c2ccccc2)s1
GI50: > 100 µM (inactive)
--
compound: N#CC(C#N)=C1SCC(=O)CS1
GI50: > 100 µM (inactive)

Now examine the next entry.
Look up GI50 of "O=S(=O)(OI(OI(OS(=O)(=O)C(F)(F)F)c1ccccc1)c1ccccc1)C(F)(F)F" and report it. 13.5 µM (inactive)

====

Recorded GI50 for the following molecules
Tested on: U-251
test-details: NCI tumour cell line growth inhibition, 48 h
The source made the active and inactive calls. Cut-off read from the data, not from the text of the source: active = GI50 up to about 1.1 µM and inactive = higher.

molecule: COc1cc2ccn3c4cc(OC)c(OC)cc4cc3c2cc1OC
GI50: > 100 µM (inactive)

Report measured GI50; entry is "CCCCCCCCCCCCCCCCCCNC(=S)NC=C1C(=O)c2ccccc2C1=O" 4.73 µM (inactive)

Give me measured GI50, please, for this molecule: "c1csc(-c2ccc(-c3ccsc3)s2)c1" > 100 µM (inactive)

Answer with the recorded GI50 for the molecule listed here: C[C@@H]1OC(=O)N2CCCC(=C3SCCCS3)C12 (stereo partly specified) > 100 µM (inactive)

Annotate the molecule "C=CCN(c1cc(OC)c(NC(C)=O)cc1[N+](=O)[O-])S(C)(=O)=O" with its measured GI50. > 100 µM (inactive)

Indicate the recorded GI50 value for this molecule: COc1ccc(C2OC(c3ccncc3)=NN2C)cc1OC (stereo unspecified) > 100 µM (inactive)

====

System: M14
test-details: NCI tumour cell line growth inhibition, 48 h
Activity calls are given as the source filed them. Cut-off read from the data, not from the text of the source: active = GI50 up to about 1.1 µM and inactive = higher.
parameter-measured: GI50

compound: CC(=O)/C(=C/n1c(=S)sc2ccccc21)C(=O)Nc1ccccc1C
readout-value: > 100 µM (inactive)
--
compound: Cc1cc2c(c(C(=O)NCCC(=O)N[C@@H](C)C(=O)OCc3ccccc3)c1)Oc1c(cc(C)cc1C(=O)NCCC(=O)N[C@@H](C)C(=O)OCc1ccccc1)S2
readout-value: > 100 µM (inactive)

Give recorded GI50. "O=C1OC(c2ccc(O)c(Cl)c2)(c2ccc(O)c(Cl)c2)c2ccc(Br)c3cccc1c23.O=C1OC(c2ccc(O)c(Cl)c2)(c2ccc(O)c(Cl)c2)c2cccc3c(Br)ccc1c23" 28.8 µM (inactive)

Look up and report measured GI50 for this entry: "CC[C@@]1(O)C(=O)OCc2c1c(Cl)c1n(c2=O)Cc2cc3ccccc3nc2-1" 2 µM (inactive)

# return recorded GI50 for input Cc1cccc2c1CC(C1OC(=O)c3c(C)cccc31)C2=O (stereo not given) > 100 µM (inactive)

Write down GI50 measured for item "c1ccc2c(c1)Sc1nccc3ccnc-2c13" 79.1 µM (inactive)

Give the measured GI50 for "O=C(CSCC(=O)N/N=C/c1ccc(F)cc1)N/N=C/c1ccc(F)cc1" 76.6 µM (inactive)

Supply recorded GI50 for "NC(=O)c1cc2ccccc2c(/N=N/c2ccccc2)c1O" here. > 100 µM (inactive)

For the compound "O=C(O)c1cccc(Nc2c(C(=O)O)cccc2[N+](=O)[O-])c1" , give its reported GI50. > 100 µM (inactive)

Tell me its GI50 given COc1ccc(C2OC(c3ccncc3)=NN2C)cc1OC (stereo not given) as the entry. > 100 µM (inactive)

Supply recorded GI50 for CC1CC[C@]2(C(=O)O)CCC3(C)C(=C2[C@H]1C)C=CC1[C@@]2(C)CC[C@H](O)C(C)(C)C2CC[C@]13C (stereo not given in full) here. 44.9 µM (inactive)

Item "COc1ccccc1-c1cc(O)c2cc(C)cnc2n1" : provide GI50 37.9 µM (inactive)

Name the recorded GI50 of the item "CCCCCCCCCCCCCCCCCCNC(=S)NC=C1C(=O)c2ccccc2C1=O" in your answer. 10.3 µM (inactive)

Please supply the value of reported GI50 for the item "N#CCC(=O)N1CCCCCCC1" > 100 µM (inactive)

Look up GI50 of Cn1c2ccccc2c(=O)c2c(O)cc3c(c21)CC(C1(C)CO1)O3 (stereo not given) and report it. 1.51 µM (inactive)

Give the reported GI50 for this compound. "CCOC(=O)/C(=N\Nc1ccc(-n2c(C)nc3ccc(Br)cc3c2=O)cc1)C(C)=O" 62.4 µM (inactive)

Identify the reported GI50 for the following entry. "Cc1nc(/C(=N\n2cnnc2)Nc2ccc(Br)cc2)no1" > 100 µM (inactive)

Measured values drawn from ChEMBL document CHEMBL1201862 for this set.
